From: ChEMBL document CHEMBL3997827

Test system: MDA-MB-231
method: Cytotoxicity against human MDA-MB-231 cells assessed as decrease in cell viability after 24 hrs by MTT assay
Type: functional, cell-based
test-context: MDA-MB-231, 24 h
IC50 values, listed per item
Enter your answer as a number in µM; do not include the unit.

Examples with their reported IC50 follow.
- molecule: "CCCc1nn(C)c2c1NC1(CCCC1)NC2=O"
  IC50, µM: 34
- molecule: "CCCc1nn(C)c2c1NC1(CCC(C)(C)CC1)NC2=O"
  IC50, µM: 45

Proceed to the following item.
Ask | Consider the molecule shown here: CCCc1nn(C)c2c1NC1(NC2=O)C(=O)N(CC)c2ccccc21 (stereo not drawn) What is its recorded IC50?
Reply | 41

----------
Tested on: MDA-MB-231
method: Cytotoxicity against human MDA-MB-231 cells assessed as decrease in cell viability after 24 hrs by MTT assay
Type: functional, cell-based
test-context: MDA-MB-231, 24 h
IC50 values, listed per item
Enter your answer as a number in µM; do not include the unit.

Examples with their reported IC50 follow.
- compound: "CCCc1nn(C)c2c1NC1(CCCCCC1)NC2=O"
  study-system: "MDA-MB-231"
  reported: 52
- compound: "CCCc1nn(C)c2c1NC1(NC2=O)C(=O)N(Cc2ccccc2)c2ccccc21 (stereo not given)"
  study-system: "MDA-MB-231"
  reported: 38
- compound: "CN1C(=O)C2(NC(=O)c3c(sc4c3CCCC4)N2)c2ccccc21 (stereo not given)"
  study-system: "MDA-MB-231"
  reported: 39
- compound: "CCCc1nn(C)c2c1NC1(NC2=O)C(=O)N(C(=O)OC(C)(C)C)c2ccccc21 (stereo not given)"
  study-system: "MDA-MB-231"
  reported: 28
- compound: "CCCc1nn(C)c2c1NC1(CCCCC1)NC2=O"
  study-system: "MDA-MB-231"
  reported: 35

Ask | Consider the compound shown here: CCN1C(=O)C2(NC(=O)c3c(sc4c3CCCC4)N2)c2ccccc21 (stereo not given) What is its recorded IC50?
Reply | 34

Ask | Consider the compound shown here: CCCc1nn(C)c2c1NC1(NC2=O)C(=O)N(C)c2ccccc21 (stereo not given) What is its recorded IC50?
Reply | 34

Ask | Consider the compound shown here: CCCCCCCCCCCCN1C(=O)C2(NC(=O)c3c(sc4c3CCCC4)N2)c2ccccc21 (stereo not given) What is its recorded IC50?
Reply | 29

Ask | Consider the compound shown here: CCCCCCCCCCCCCCCCN1C(=O)C2(NC(=O)c3c(sc4c3CCCC4)N2)c2ccccc21 (stereo not given) What is its recorded IC50?
Reply | 34

Ask | Consider the compound shown here: CC(C)N1C(=O)C2(NC(=O)c3c(sc4c3CCCC4)N2)c2ccccc21 (stereo not given) What is its recorded IC50?
Reply | 22
